Source listed as ChEMBL document CHEMBL4513216.

Reported INHIBITION is given for each of the following molecules.
- Tested on: Plasmodium berghei
- METHOD_DESCRIPTION: Screen against P. berghei liver stage (PbLuc), transformed with Luciferase, at 2uM
- Assay type: functional, HepG2
- CONDITION_NOTES: tested at 2 uM
Out of some 68,000 compounds screened, about 2,700 (4%) showed an effect of 50% or more. Shown is part of a subset that was picked to be rich in strong results.
REPORTED_METRIC: INHIBITION (%)

>>> print(df.to_string())
                                    molecule  reported_metric  measurement
 0   COc1ccc(NC(=O)c2nc3ccccc3n(C)c2=O)cc1OC       INHIBITION         9.85
 1            CCCc1n[nH]c(=O)n1Cc1ccc(OC)cc1       INHIBITION       -13.14
 2       COC(=O)CCNC(=O)c1ccc(OCc2ccccc2)nc1       INHIBITION       -45.68
 3  CCC[C@@H]1CN(c2ncnc3sccc23)C[C@H]1NS(C)(=O)=O       INHIBITION        46.58
 4  O=C(CCN1CCCCO1)NC1CCCN(CC2CCCCC2)C1 (centres undefined)       INHIBITION        -0.88
 5        CCN(CC)CCNC(=O)c1cnc(-c2ccccc2)nc1       INHIBITION       -16.21
 6  O=C(NC1CC1)C1=CC2(CCN(CC3CC3)CC2)c2ccccc21       INHIBITION        11.73
 7  Cc1nn(C)c(C)c1C(C)NCc1ccsc1 (centres undefined)       INHIBITION        38.83
 8            CCNC(=O)CN1CCc2c(Br)ccc(F)c2C1       INHIBITION       -25.78
 9           Cn1ccnc1-c1cn(CCCc2csc(N)n2)nn1       INHIBITION       -21.39
10        Fc1ccc(-c2noc3c2CN(CC2CC2)CC3)cc1F       INHIBITION        21.49
11  Fc1cccc(-c2nnn3c2COC(CNCc2nccs2)C3)c1 (centres undefined)       INHIBITION       -19.51
12  O=C1CC(c2ccccc2)c2c(n3ccsc3nc2=O)N1 (centres undefined)       INHIBITION        73.66
13  CNc1nc(C2CCCN2C(C)=O)nc2c1CN(CCO)CC2 (centres undefined)       INHIBITION        -0.83
14  O=C(CSCC1CC1)N1CCCC(c2nccn2Cc2ccccn2)C1 (centres undefined)       INHIBITION       -17.83
15    CCN1CCC2(C=C(C(=O)NC3CC3)c3ccccc32)CC1       INHIBITION        57.95
16  COc1ccccc1C(NC(=O)CN(C)C(C)C)c1noc(C)n1 (centres undefined)       INHIBITION          1.8
17           CCOC(=O)c1sc2ccsc2c1CNC(=O)CCOC       INHIBITION        27.47
18      COc1cncc(-n2ccnc2-c2ccc(C(=O)O)s2)c1       INHIBITION        48.58
19  O=C(CCC1CCCC1)N1CCCC(c2ncc3c(n2)CCNC3)C1 (centres undefined)       INHIBITION        24.89
20  CCC[C@@H]1CN(c2ncnc3sccc23)C[C@H]1C(=O)O       INHIBITION        51.48
21        CC(=O)NCCNC(=O)c1cnc(-c2ccccc2)nc1       INHIBITION        19.47
22     O=C(NCCCN1CCOCC1)c1ccnc(OCc2ccccc2)c1       INHIBITION       -47.27
23  Cn1cnc(S(=O)(=O)N2CC3(CCN(c4ccccc4)C3)C2)c1       INHIBITION        15.42

###

- Tested on: Plasmodium berghei
- METHOD_DESCRIPTION: Screen against P. berghei liver stage (PbLuc), transformed with Luciferase, at 2uM
- Assay type: functional, HepG2
- CONDITION_NOTES: tested at 2 uM
In all, about 68,000 compounds went through this assay and about 2,700 (4%) showed an effect of 50% or more. For the sample, strong results were picked, then their nearest neighbours and some compounds at random.
REPORTED_METRIC: INHIBITION (%)

>>> print(df.to_string())
                                   molecule  measurement
0     CC(=O)N1CCN(Cc2csc(-c3cnn(C)c3)n2)CC1         -6.3
1  C[S+]([O-])c1nncn1CC(=O)c1ccc2c(c1)CCO2 (stereo not drawn)        -0.75
2  CC(c1ccccn1)N(C)Cc1ccc(-n2ccnc2)cc1 (stereo not drawn)         2.67

###

Reported INHIBITION is given for each of the following compounds.
- Test system: Plasmodium berghei
- METHOD_DESCRIPTION: Screen against P. berghei liver stage (PbLuc), transformed with Luciferase, at 2uM
- Format: functional, HepG2
- CONDITION_NOTES: tested at 2 uM
Screen size: about 68,000 compounds; about 2,700 (4%) showed an effect of 50% or more. The sample as a whole holds a higher share of strong results than the screen did.
REPORTED_METRIC: INHIBITION (%)

                                    compound  reported_metric  measurement
 0  O=C(Nc1cccc(Cl)c1)c1nn(C2CCS(=O)(=O)C2)c2c1CCCC2 (configuration not stated)       INHIBITION        21.33
 1  Cn1cc(N2CC3(COCCN(Cc4ccsc4)C3)OCC2=O)cn1 (configuration not stated)       INHIBITION       -17.88
 2    CN(C)c1cc(CNC(=O)Nc2cccnc2N2CCCC2)ccn1       INHIBITION        -43.4
 3  Cc1cccc(NC(=O)c2nn(C3CCS(=O)(=O)C3)c3c2CCCC3)n1 (configuration not stated)       INHIBITION         9.29
 4  Cn1nc2c(cc1=O)CN(Cc1coc(-c3ccccc3)n1)CC2       INHIBITION        17.31
 5  Cc1ccsc1CN1CCc2c(nc(N3CCCCC3C)[nH]c2=O)C1 (configuration not stated)       INHIBITION       -17.99
 6  Cn1nccc1CN1CCOC(c2cccc(Nc3ccccn3)n2)C1 (configuration not stated)       INHIBITION       -88.78
 7        CCC=C(C)C(=O)NCc1ccnc(OC2CCOCC2)c1       INHIBITION         4.54
 8  Cc1cnn(CC2CCCN2Cc2nc3ccccc3n2C)c1 (configuration not stated)       INHIBITION          9.9
 9  Cc1cnn(CC2CN(Cc3nc(-c4ccccn4)no3)CCO2)c1 (configuration not stated)       INHIBITION        -5.09
10  Cn1nc2c(cc1=O)CN(Cc1coc(-c3ccc(F)cc3)n1)CC2       INHIBITION       -21.39
11  Cc1nc(N2CCC(O)(c3ccc(F)cc3)CC2)c2c(C)nn(C)c2n1       INHIBITION        15.92
12  CC(=O)N1CCN(C(=O)C2CCN(c3cccnn3)C2)CC1 (configuration not stated)       INHIBITION         -4.8
13         COc1ccc(C)cc1CN1CCN(Cc2nccn2C)CC1       INHIBITION        50.61
14  CN1CC(=O)N(c2cnn(C)c2)CC12CCN(C(=O)c1ccsc1)C2 (configuration not stated)       INHIBITION        -6.94
15  c1ccc(-c2noc(CN3CCOC(Cn4cccn4)C3)n2)nc1 (configuration not stated)       INHIBITION        23.71
16  O=C1N(CC2CC2)CCC12CCCN(c1ncc(F)cn1)C2 (configuration not stated)       INHIBITION       -14.61
17   O=C1N(CC2CCCC2)CCC12CCN(c1ncc(F)cn1)CC2       INHIBITION        61.15
18            CC(C)c1[nH]c2ncccc2c1CN1CCOCC1       INHIBITION        68.53
19  COc1ccc(C)cc1CN1CCN(Cc2nccn2C)C(C)C1 (configuration not stated)       INHIBITION        50.61
20  O=C(Nc1ccc(Cl)cn1)c1nn(C2CCS(=O)(=O)C2)c2c1CCCC2 (configuration not stated)       INHIBITION         66.3
21  COc1ccc(CCNC(=O)C2CCOC2)c(Cl)c1 (configuration not stated)       INHIBITION        -7.69
22  CN1CCC(C(=O)N2CCCN(c3cccnn3)CC2)C1 (configuration not stated)       INHIBITION        45.48
23  Cc1cccc(CN2CCC3(CCCN(C(=O)CN(C)C)C3)C2=O)n1 (configuration not stated)       INHIBITION        28.95
24        O=C1N(CC2CC2)CCC12CCN(c1ncccn1)CC2       INHIBITION         8.37
25  Cn1nc2c(cc1=O)CN(Cc1nc(-c3ccccn3)no1)CC2       INHIBITION        50.75
26     Cc1cnc(N2CCC3(CCN(CC4CC4)C3=O)CC2)nc1       INHIBITION        51.19
